# Tested on: SK-MEL-2
# assay: NCI 60 cell line screen
# Format: cell-based
# measurement_conditions: SK-MEL-2, Melanoma; single concentration 10^−5 M
reported_metric: Growth % (%)
Provide the reading as a plain figure in %.

INSERT INTO results (smiles_text, experimental_result) VALUES
  ('N#Cc1c(-c2ccc(Cl)cc2)cc(-c2c[nH]c3ccccc23)nc1-c1c[nH]c2ccccc12', 103.64),
  ('COc1cc(OC)cc(-c2cc(-c3c[nH]c4ccccc34)nc(-c3c[nH]c4ccccc34)c2C#N)c1', 88.37);

I looked up N#Cc1c(-c2ccc(O)cc2)cc(-c2c[nH]c3ccccc23)nc1-c1c[nH]c2ccccc12 and its Growth % for SK-MEL-2 was 100.11

I looked up N#Cc1c(-c2ccc(F)cc2)cc(-c2c[nH]c3ccccc23)nc1-c1c[nH]c2ccccc12 and its Growth % for SK-MEL-2 was 96.13

I looked up N#Cc1c(-c2ccc(Br)cc2)cc(-c2c[nH]c3ccccc23)nc1-c1c[nH]c2ccccc12 and its Growth % for SK-MEL-2 was 95.21
